self-cleavage listing for selected variants.
B1: OR4K15 (parent)
chain: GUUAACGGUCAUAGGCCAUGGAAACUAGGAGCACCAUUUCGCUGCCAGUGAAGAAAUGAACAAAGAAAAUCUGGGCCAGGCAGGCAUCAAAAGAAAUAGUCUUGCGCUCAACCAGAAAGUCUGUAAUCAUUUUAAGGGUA

- Variants of: B1
- ASSAY_EXPLANATION: self-cleavage, relative activity (ratio to wild type); higher = more cleavage; in vitro, sequencing; the parent is a self-cleaving ribozyme
Answer with a bare number; do not write a unit.

{"columns": ["RESIDUE_CODES", "self-cleavage"],
 "data": [
  ["GUUAACGGUCAUAGGCCAUGGAAACUAGGAGCACCAUUUCGCUGCCAGUGAAGAAAUGAACAAAGAAAGUCUGGGCCGGGCAGGCAUCAAAAGAAAUAGUCUUGCGCUCAACCAGAAAGUCUGUAAUCAUUUUAAGGGUA", 0.27],
  ["GUUAACGGUCAUAGGCCAUGGAAACUAGGAGCACCAUUUCGCUGCCAGUGAAGAAAUGAACGAAGAAAAUCUGGGCCAGGCAGGCAUCAAAAGAAAUAGUCUUGAGCUCAACCAGAAAGUCUGUAAUCAUUUUAAGGGUA", 0.03],
  ["GUUAACGGCCAUAGGCCAUGGAAACUAGGAGCACCAUUUCGCUGCCAGUGAAGAAAUGAACAAAGAAAAUCUGGGCCAGGCAGGCAUCGAAAGAAAUAGUCUUGCGCUCAACCAGAAAGUCUGUAAUCAUUUUAAGGGUA", 1.45]
]}

Task: Reported self-cleavage for GUUAACGGUCAUAGGCCAUGGAAGCUAGGAGCACCAUUUCGCUGCCAGUGAAGAAAUGAACAAAGAAAAUCUGGGCCAGGCAGGCAUCAAAAGGAAUAGUCUUGCGCUCAACCAGAAAGUCUGUAAUCAUUUUAAGGGUA : what is it?
Result: 1.47

Task: Param item: GUUAACGGUCAUAGGCCAUGGAAACUAGGAGCACCAUUUCGCUGCCAGUGAAGAAAUGAACAAAGAAAAUCUGGGCCAGGCAGGCAUCAAAAGAAAUAGCCUUGCGCACAACCAGAAAGUCUGUAAUCAUUUUAAGGGUA
Result: 0.02

Task: And the next one, GUUAACGGUCAUAGGCCAUGGAAACUAUGAGCACCAUUUCGCUGCCAGUGAAGAAAUGAACAAAGAAAAUCUGGGCCAGGCAGGCAUCAAAAGAAAUAGCCUUGCGCUCAACCAGAAAGUCUGUAAUCAUUUUAAGGGUA ?
Result: 2.35

Task: Next variant: GUUAACGGUCAUAGGCCAUGGAAACUAGGAGCACCAUUUCGCAGCCAGUGAAGAAAUGAACAAAGAAAAUCUGGGCCAGGCAGGCAUCUAAAGAAAUAGUCUUGCGCUCAACCAGAAAGUCUGUAAUCAUUUUAAGGGUA
Result: 1.74

Task: Please do the same for GUUAACGGUCAUAGGCCAUGGAAACUAGGAGCACCAUUUCGCUGCCAGUGAAGAAAUGAACAAAGAAAAUCUGGGCCAGGCAGGCAUCAAAAGAACUAGUCUUGCGCUCAACCAGAAAGUCUGUAAUCAUUUUAAGGGUA as well.
Result: 0.82

Task: Now consider GUUAACGGUCAUAGGCCAUGGAAACUAGGAGCACCAUUACGCUGCCAGAGAAGAAAUGAACAAAGAAAAUCUGGGCCAGGCAGGCAUCAAAAGAAAUAGUCUUGCGCUCAACCAGAAAGUCUGUAAUCAUUUUAAGGGUA and answer again.
Result: 1.4

Task: Same thing, different variant: GUUAACGGUCAUAGGCCAUGGAAACUAGGAGCACCUUUUCGCUGCCAGUGAAGAAAUGAACAAAGAAAGUCUGGGCCAGGCAGGCAUCAAAAGAAAUAGUCUUGCGCUCAACCAGAAAGUCUGUAAUCAUUUUAAGGGUA
Result: 1.56

Task: Repeat with GUUAACGGUCAUAGGCCAUGGAACCUAGGAGCACCAUUUCGCUGCCAGUGAAGAAAUGAACAAAGAAAAUCUGGGCCAGGCAGGCAUCAAAAGAAAUAGUCUUGCGCUCAGCCAGAAAGUCUGUAAUCAUUUUAAGGGUA
Result: 0.01

Task: Can you check GUUAACGGUCAUAGGCCAUGGAAACUAGGAGCACCAUUUCGCUGCCAGUGAAGAAAUGAGCAAAGAAAAUCUGGGCCAGGCAGGCAUCAGAAGAAAUAGUCUUGCGCUCAACCAGAAAGUCUGUAAUCAUUUUAAGGGUA next?
Result: 0.4

Task: Can you handle GUUAACGGUCAUAGGCCAUGGGAACUAGGAGCACCAUUUCGCUGCCAGCGAAGAAAUGAACAAAGAAAAUCUGGGCCAGGCAGGCAUCAAAAGAAAUAGUCUUGCGCUCAACCAGAAAGUCUGUAAUCAUUUUAAGGGUA next?
Result: 0.55

Task: Try this variant too: GUUAACGGUCAUAGGCCAUGGAAACUAGGAGCACCAUUUCGCUGCCAGUGAAGAAAUGAACAAGGAAAAUCUGGGCCAGGCAGGCAUCAAAAGAAAUAGUCUUGUGCUCAACCAGAAAGUCUGUAAUCAUUUUAAGGGUA
Result: 0.12
